biological target: intracellular phosphorylation of EGFR in NCI-H1975 cell line that harbors the EGFR L858R T790M mutations (Homo sapiens, UniProt P00533, L858R/T790M); construct: NCI-H1975 cell line that harbors the EGFR L858R T790M mutations (ATCC, CRL-5908); host or cells: NCI-H1975; test: NCI-H1975 pEGFR AlphaLISA assay; assay type: cell-based; conditions: NCI-H1975 cells (EGFR L858R T790M), p-EGFR (Tyr1068), 4-5 hours incubation; read-out: Ext pEGFR H1975 GMean IC50 (nM) Protocol: @Pharmaron AlphaLISA (Num)
Sequence (P00533 25-1210 T790M/L858R): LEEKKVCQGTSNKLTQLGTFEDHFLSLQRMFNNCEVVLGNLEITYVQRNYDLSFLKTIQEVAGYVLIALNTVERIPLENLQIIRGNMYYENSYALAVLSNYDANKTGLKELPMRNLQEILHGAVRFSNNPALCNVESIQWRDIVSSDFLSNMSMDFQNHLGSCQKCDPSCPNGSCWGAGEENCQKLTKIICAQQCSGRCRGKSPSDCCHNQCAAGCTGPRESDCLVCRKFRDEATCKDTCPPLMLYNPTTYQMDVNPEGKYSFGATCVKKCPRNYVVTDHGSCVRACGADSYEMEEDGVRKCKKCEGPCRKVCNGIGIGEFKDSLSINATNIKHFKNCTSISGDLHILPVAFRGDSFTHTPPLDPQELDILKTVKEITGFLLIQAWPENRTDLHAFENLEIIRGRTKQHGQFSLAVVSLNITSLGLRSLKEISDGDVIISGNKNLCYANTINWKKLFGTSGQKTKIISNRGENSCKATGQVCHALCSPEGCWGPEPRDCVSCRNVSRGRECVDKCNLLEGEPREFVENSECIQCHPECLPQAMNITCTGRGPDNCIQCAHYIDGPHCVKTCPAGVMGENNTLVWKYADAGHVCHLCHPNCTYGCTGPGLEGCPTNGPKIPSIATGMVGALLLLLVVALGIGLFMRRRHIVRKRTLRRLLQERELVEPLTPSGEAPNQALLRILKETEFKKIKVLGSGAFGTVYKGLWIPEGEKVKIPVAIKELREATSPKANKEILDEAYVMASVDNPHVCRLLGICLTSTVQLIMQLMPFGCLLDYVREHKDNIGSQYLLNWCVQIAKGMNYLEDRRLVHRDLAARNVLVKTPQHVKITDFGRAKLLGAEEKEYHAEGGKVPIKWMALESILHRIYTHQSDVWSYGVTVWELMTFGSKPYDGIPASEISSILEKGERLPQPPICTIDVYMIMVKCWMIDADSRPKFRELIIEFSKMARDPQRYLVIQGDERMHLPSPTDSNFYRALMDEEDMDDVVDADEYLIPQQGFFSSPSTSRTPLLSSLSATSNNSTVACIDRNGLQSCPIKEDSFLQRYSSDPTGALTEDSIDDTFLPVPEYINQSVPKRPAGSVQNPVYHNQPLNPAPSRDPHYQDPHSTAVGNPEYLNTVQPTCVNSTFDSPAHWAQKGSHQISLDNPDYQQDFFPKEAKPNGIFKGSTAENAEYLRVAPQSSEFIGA
recordedEndpoint: IC50

Solved entries:
{"compound": "CC(C)c1cnc(N2CC3(CCS3(=O)=O)C2)c2cnc(Nc3ccnc(N4CC[C@@](C)(O)[C@@H](F)C4)n3)cc12 (single isomer, unassigned) [Example 175]", "IC50": "> 50 nM"}
{"compound": "C[C@H](CO)c1ncc(N2CC[C@H]2C)c2cnc(Nc3ccnc(N4CC[C@@H](O)[C@@](C)(F)C4)n3)cc12 (single isomer, unassigned)", "IC50": "> 50 nM"}

Give me IC50 for each of these compounds, listed below.
1. Cc1nnc(-c2ncc(C(C)C)c3cc(Nc4ccnc(N5CC[C@@H](O)[C@@](C)(F)C5)n4)ncc23)o1
2. CC(C)c1cnc(N2C[C@H](O)[C@H]2C)c2cnc(Nc3ccnc(N4C[C@H](F)[C@H](O)[C@@](C)(F)C4)n3)cc12 (single isomer, unassigned)
3. CC(C)Oc1cnc(N2CC[C@H]2C)c2cnc(Nc3ccnc(N4CC[C@@H](O)[C@@H](F)C4)n3)cc12
4. CC(C)c1cnc(N2C[C@H](O)[C@H]2C)c2cnc(Nc3ccnc(N4C[C@@H](F)[C@@H](O)[C@](C)(F)C4)n3)cc12 (single isomer, unassigned)
5. CC(C)c1cnc(N2C[C@H](OC(F)F)[C@H]2C)c2cnc(Nc3ccnc(N4CC[C@@H](O)[C@@](C)(F)C4)n3)cc12
6. C[C@H](c1cnc(N2CC[C@H]2C)c2cnc(Nc3ccnc(N4CC[C@@H](O)[C@@](C)(F)C4)n3)cc12)C1COC1 (single isomer, unassigned) [Example 177]

1: 10 to 20 nM; 2: > 50 nM; 3: > 50 nM; 4: 20 to 30 nM; 5: 10 to 20 nM; 6: 20 to 30 nM

Give me IC50 for each of these compounds, listed below.
1. CC(C)c1cnc(N2CC(C#N)C2)c2cnc(Nc3ccnc(N4CC[C@@H](O)[C@@](C)(F)C4)n3)cc12
2. C[C@@H]1CCN1c1ncc([C@@H](C)OCC2COC2)c2cc(Nc3ccnc(N4CC[C@@H](O)[C@@](C)(F)C4)n3)ncc12 (single isomer, unassigned) [Example 184]
3. CC(C)c1cnc(N2CC[C@H](O)[C@H]2C)c2cnc(Nc3ccnc(N4CC[C@@H](O)[C@@](C)(F)C4)n3)cc12
4. CC(C)c1cnc(-c2nnc(C(C)(C)O)o2)c2cnc(Nc3ccnc(N4CC[C@@H](O)[C@@](C)(F)C4)n3)cc12

1. 10 to 20 nM
2. 30 to 50 nM
3. > 50 nM
4. > 50 nM
